B1: TRIM55 (parent)
chain: FQMEKIEHGYENMNHFTVNLNREE

variants of: B1; experiment: protein stability index of a GFP-peptide fusion (GPS, HEK-293T) (PSI 1-6); higher = more stable; details: c terminus: a fixed tail appended;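 further: lentivirally expressed fusions sorted by FACS into six bins by GFP to DsRed ratio, PSI derived from sequencing read proportions per bin multiplied by bin number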
assay endpoint: protein stability index
Answer as a number with no unit attached.

Would you please look over these solved cases?
FQMEKIEHGYENMNHFTVNLNCEE [R22C] ... 3.09
FQMEGIEHGYENMNHFTVNLNREE [K5G] ... 2.93

[Q] Can you look up the measured protein stability index of FQMEKIEHGYENMNHFTVNKNREE [L20K] for me?
[A] 3.04
